# system.name: human Lck enzyme (Homo sapiens, UniProt P06239)
# Construct: purchased Carna Biosciences, Inc. 08-170
# Sequence (P06239 whole entry): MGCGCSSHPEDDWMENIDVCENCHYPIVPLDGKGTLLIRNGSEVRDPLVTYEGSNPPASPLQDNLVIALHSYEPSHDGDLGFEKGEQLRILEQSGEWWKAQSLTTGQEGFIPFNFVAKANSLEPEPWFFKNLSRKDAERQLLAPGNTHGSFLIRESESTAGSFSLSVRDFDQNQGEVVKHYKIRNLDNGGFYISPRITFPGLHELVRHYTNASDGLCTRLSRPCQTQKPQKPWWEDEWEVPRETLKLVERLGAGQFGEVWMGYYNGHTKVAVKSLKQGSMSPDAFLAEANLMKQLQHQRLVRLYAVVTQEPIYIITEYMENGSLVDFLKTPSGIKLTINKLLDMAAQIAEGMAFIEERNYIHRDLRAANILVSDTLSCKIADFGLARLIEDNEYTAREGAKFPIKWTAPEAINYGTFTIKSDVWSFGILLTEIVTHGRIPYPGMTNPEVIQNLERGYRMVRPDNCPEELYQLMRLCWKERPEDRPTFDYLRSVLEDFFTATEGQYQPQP
# assay: Lck enzyme inhibitory activity (time-resolved fluorometry, biotinylated peptide phosphorylation)
# Type: biochemical
# condition.set: read-out: LCK_IC50
measurement.kind: log10 IC50 (log10 of the value in nM)
Heads up, the numbers here are log10 of IC50 in nM units.

>  <compound>
Cc1cc(Oc2cccc(F)c2F)ncc1-n1ncc(C(=O)c2cc3cc(NS(C)(=O)=O)c(F)cc3[nH]2)c1N [Example 5-1-049]

>  <log10 IC50>
0.59

$$$$
>  <compound>
Cc1cc(-n2ncc(C(=O)c3cc4cc(OC(F)F)c(N5C(=O)NC(C)(C)C5=O)cc4[nH]3)c2N)ccc1Oc1ccccc1F [Example 5-1-179]

>  <log10 IC50>
2.26

$$$$

-- ask Tell me log10 IC50 of Nc1c(C(=O)c2cc3cc(F)c(NS(=O)(=O)CCCF)cc3[nH]2)cnn1-c1c(F)cc(Oc2ccccc2F)cc1F [Example 5-1-027] when tested on human Lck enzyme (Homo sapiens, UniProt P06239).
-- reply 1.30

-- ask Tell me log10 IC50 of COc1ccc(Cl)c(S(=O)(=O)Nc2cc3[nH]c(C(=O)c4cnn(-c5cnc(Oc6c(F)cccc6F)cc5C)c4N)cc3cc2OCC(F)F)c1 [Example 5-1-301] when tested on human Lck enzyme (Homo sapiens, UniProt P06239).
-- reply 2.23

-- ask Tell me log10 IC50 of Cc1cc2cc(C(=O)c3cnn(-c4cnc(Oc5ccccc5F)cc4C)c3N)[nH]c2cc1N1CCC(N2CCOCC2)CC1 [Example 5-1-078] when tested on human Lck enzyme (Homo sapiens, UniProt P06239).
-- reply 0.38

-- ask Tell me log10 IC50 of Cc1cc(-n2ncc(C(=O)c3cc4cc(OCC(F)F)c(-c5cnn(C)c5)cc4[nH]3)c2N)ccc1Oc1ccccc1F [Example 5-1-263] when tested on human Lck enzyme (Homo sapiens, UniProt P06239).
-- reply 2.85

====

# system.name: human Lck enzyme (Homo sapiens)
# Construct: purchased Carna Biosciences, Inc. 08-170
# assay: Lck enzyme inhibitory activity (time-resolved fluorometry, biotinylated peptide phosphorylation)
# Type: biochemical
# condition.set: biotinylated peptide phosphorylation, read-out: LCK_IC50
pIC50: −log10 of the molar value.
I would appreciate it if you labelled entries true (1) when pIC50 is 8 or higher, otherwise false (0).

>  <record.smiles>
Cc1cc(Oc2ccccc2F)ccc1-n1ncc(C(=O)c2cc3cc(F)c(NS(N)(=O)=O)cc3[nH]2)c1N

>  <label.value>
true (1)

$$$$
>  <record.smiles>
Cc1cc(Oc2cccc(F)c2F)ccc1-n1ncc(C(=O)c2cc3cc(C4CCN(C(C)C)CC4)c(F)cc3[nH]2)c1N

>  <label.value>
true (1)

$$$$
>  <record.smiles>
Cc1cc2cc(C(=O)c3cnn(-c4cnc(Oc5c(F)cccc5F)cc4C)c3N)[nH]c2cc1NS(=O)(=O)c1cncc(F)c1

>  <label.value>
false (0)

$$$$
>  <record.smiles>
Cc1cc2cc(C(=O)c3cnn(-c4cnc(Oc5ccccc5F)cc4C)c3N)[nH]c2cc1NS(=O)(=O)N1CCOCC1

>  <label.value>
false (0)

$$$$
>  <record.smiles>
Cc1cc2cc(C(=O)c3cnn(-c4cnc(Oc5ccccc5F)cc4C)c3N)[nH]c2cc1NS(=O)(=O)c1ccccn1

>  <label.value>
false (0)

$$$$

-- ask Textbook exercise: given the entry Cc1cc(Oc2ccccc2F)ncc1-n1ncc(C(=O)c2cc3cc(F)c(NS(=O)(=O)c4cncc(Cl)c4)cc3[nH]2)c1N , state whether its pIC50 is greater than or equal to 8.
-- reply false (0)

-- ask Textbook exercise: given the entry Cc1cc(Oc2ccccc2F)ncc1-n1ncc(C(=O)c2cc3cc(OC(F)F)c(NC4CCN(S(C)(=O)=O)CC4)cc3[nH]2)c1N , state whether its pIC50 is greater than or equal to 8.
-- reply false (0)

-- ask Textbook exercise: given the entry Cc1cc2cc(C(=O)c3cnn(-c4c(C)cc(Oc5ccccc5F)cc4F)c3N)[nH]c2cc1NS(=O)(=O)CCCF , state whether its pIC50 is greater than or equal to 8.
-- reply false (0)

-- ask Textbook exercise: given the entry Cc1cc(-n2ncc(C(=O)c3cc4cc(F)c(NS(=O)(=O)C5CCOCC5)cc4[nH]3)c2N)ccc1Oc1ccccc1F , state whether its pIC50 is greater than or equal to 8.
-- reply false (0)

-- ask Textbook exercise: given the entry Cc1cc(Oc2ccccc2F)ncc1-n1ncc(C(=O)c2cc3cc(OCC(F)F)c(NS(=O)(=O)c4cccc(Cl)c4)cc3[nH]2)c1N , state whether its pIC50 is greater than or equal to 8.
-- reply false (0)

-- ask Textbook exercise: given the entry Cc1cc2cc(C(=O)c3cnn(-c4cnc(Oc5c(F)cccc5F)cc4C)c3N)[nH]c2cc1N1C(=O)N[C@@H](CO)C1=O , state whether its pIC50 is greater than or equal to 8.
-- reply true (1)

-- ask Textbook exercise: given the entry Cc1cc(Oc2ccccc2F)cc(F)c1-n1ncc(C(=O)c2cc3cc(OCC(F)F)c(N4CCOCC4)cc3[nH]2)c1N , state whether its pIC50 is greater than or equal to 8.
-- reply true (1)

-- ask Textbook exercise: given the entry Cc1cc2cc(C(=O)c3cnn(-c4cnc(Oc5cccc(Cl)c5)cc4C)c3N)[nH]c2cc1NS(=O)(=O)N1CCOCC1 , state whether its pIC50 is greater than or equal to 8.
-- reply false (0)

-- ask Textbook exercise: given the entry Cc1cc2cc(C(=O)c3cnn(-c4cnc(Oc5ccccc5F)cc4C)c3N)[nH]c2cc1NS(=O)(=O)c1cccc(F)n1 , state whether its pIC50 is greater than or equal to 8.
-- reply false (0)

-- ask Textbook exercise: given the entry Cc1cc(Oc2ccccc2F)ncc1-n1ncc(C(=O)c2cc3cc(F)c(N4CCCS4(=O)=O)cc3[nH]2)c1N , state whether its pIC50 is greater than or equal to 8.
-- reply true (1)

-- ask Textbook exercise: given the entry Cc1cc(Oc2ccccc2F)ncc1-n1ncc(C(=O)c2cc3cc(F)c(NS(=O)(=O)c4cccc(F)c4)cc3[nH]2)c1N , state whether its pIC50 is greater than or equal to 8.
-- reply false (0)

-- ask Textbook exercise: given the entry Cc1cc(Oc2ccccc2F)ccc1-n1ncc(C(=O)c2cc3cc(F)c(NS(=O)(=O)NCCO)cc3[nH]2)c1N , state whether its pIC50 is greater than or equal to 8.
-- reply true (1)

-- ask Textbook exercise: given the entry Cc1cc(Oc2c(F)cccc2F)ncc1-n1ncc(C(=O)c2cc3cc(F)c(NS(=O)(=O)c4cncc(F)c4)cc3[nH]2)c1N , state whether its pIC50 is greater than or equal to 8.
-- reply false (0)

-- ask Textbook exercise: given the entry Cc1cc(Oc2ccccc2F)ccc1-n1ncc(C(=O)c2cc3cc(OCCN4CCOCC4)c(N4CCCS4(=O)=O)cc3[nH]2)c1N , state whether its pIC50 is greater than or equal to 8.
-- reply true (1)

-- ask Textbook exercise: given the entry Cc1cccc(S(=O)(=O)Nc2cc3[nH]c(C(=O)c4cnn(-c5ccc(Oc6ccccc6F)cc5C)c4N)cc3cc2F)n1 , state whether its pIC50 is greater than or equal to 8.
-- reply false (0)

-- ask Textbook exercise: given the entry COc1ccnc(S(=O)(=O)Nc2cc3[nH]c(C(=O)c4cnn(-c5cnc(Oc6c(F)cccc6F)cc5C)c4N)cc3cc2OCC(F)F)c1 , state whether its pIC50 is greater than or equal to 8.
-- reply false (0)

-- ask Textbook exercise: given the entry Cc1cc(Oc2cccc(F)c2F)ncc1-n1ncc(C(=O)c2cc3cc(Cl)c(NS(C)(=O)=O)cc3[nH]2)c1N , state whether its pIC50 is greater than or equal to 8.
-- reply false (0)
